Reported pEC50 is given for each of the following compounds.
Target: delta opioid receptor in the mouse vas deferens (Mus musculus, UniProt P32300)
Construct: Vasa deferentia were removed from mice; from tissue; host or cells: mouse vas deferens (isolated organ bath)
Sequence (P32300 whole entry): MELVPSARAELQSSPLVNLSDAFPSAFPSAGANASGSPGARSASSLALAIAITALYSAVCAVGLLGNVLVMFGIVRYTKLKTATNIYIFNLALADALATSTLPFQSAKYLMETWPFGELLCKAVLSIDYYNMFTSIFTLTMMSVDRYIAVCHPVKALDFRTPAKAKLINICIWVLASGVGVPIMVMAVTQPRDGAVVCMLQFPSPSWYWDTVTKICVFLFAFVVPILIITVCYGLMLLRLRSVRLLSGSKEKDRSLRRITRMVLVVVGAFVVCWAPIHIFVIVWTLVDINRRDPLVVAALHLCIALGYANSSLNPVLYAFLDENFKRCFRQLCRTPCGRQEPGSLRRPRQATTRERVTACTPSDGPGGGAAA
Assay: Electrically stimulated mouse vas deferens, delta opioid agonist potency (ED50)
Details: inhibition of electrically induced muscle contractions; read-out: Mouse Vas Deferens ED50
FYI, pEC50 means -log10 of a concentration in mol per litre.

These recorded examples may help you get a feel for the data.
>  <COMPOUND>
C=CCN1C[C@@H](C)N([C@H](c2ccc(S(=O)(=O)N(C)C)cc2)c2cccc(O)c2)C[C@@H]1C (relative stereo) [Compound 19]

>  <QUANTITATIVE_READOUT>
7.43

$$$$
>  <COMPOUND>
C[C@H]1CN([C@H](c2ccc(C(=O)N3CCCC3)cc2)c2cccc(O)c2)[C@@H](C)CN1C [Compound 13]

>  <QUANTITATIVE_READOUT>
6.70

$$$$
>  <COMPOUND>
CCN(CC)C(=O)c1ccc([C@H](c2cccc(O)c2)N2C[C@@H](C)NC[C@H]2C)cc1 [Compound 7]

>  <QUANTITATIVE_READOUT>
6.25

$$$$
>  <COMPOUND>
C=CCN1C[C@H](C)N([C@@H](c2cccc(O)c2)c2cccc(C(N)=O)c2)C[C@H]1C (relative stereo) [Compound 6]

>  <QUANTITATIVE_READOUT>
7.60

$$$$
>  <COMPOUND>
C[C@H]1CN([C@H](c2ccc(C(=O)N3CCCCC3)cc2)c2cccc(O)c2)[C@@H](C)CN1C [Compound 12]

>  <QUANTITATIVE_READOUT>
6.60

$$$$

Request: For the compound shown here, C=CCN1[C@H](C)CN(C(c2ccc(C(=O)N(CC)CC)cc2)c2cccc(O)c2)C[C@@H]1C (mixture of isomers) [Compound 23] , give the reported pEC50.
Result: 7.38

Request: For the compound shown here, CCN(CC)C(=O)c1ccc([C@H](c2cccc(O)c2)N2C[C@H](C)N(C)C[C@H]2C)cc1 (relative stereo) [Compound 10] , give the reported pEC50.
Result: 7.05

----------
Target: delta opioid receptor (Rattus norvegicus, UniProt P33533)
Construct: Rat (Sprague-Dawley) brain membranes were prepared; from tissue; host or cells: rat (Sprague-Dawley) brain membranes
Sequence (P33533 whole entry): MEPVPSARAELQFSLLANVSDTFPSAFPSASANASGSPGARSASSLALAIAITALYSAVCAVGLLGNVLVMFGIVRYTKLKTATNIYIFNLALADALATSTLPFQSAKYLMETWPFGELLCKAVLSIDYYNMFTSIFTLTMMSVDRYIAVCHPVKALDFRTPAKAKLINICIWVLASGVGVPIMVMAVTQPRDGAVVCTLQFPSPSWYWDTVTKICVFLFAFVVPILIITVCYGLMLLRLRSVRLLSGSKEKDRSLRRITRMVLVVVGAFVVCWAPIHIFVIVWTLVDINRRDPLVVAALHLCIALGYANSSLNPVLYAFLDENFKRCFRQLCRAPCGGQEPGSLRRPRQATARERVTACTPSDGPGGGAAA
Experiment: Delta receptor binding in rat brain membranes (Delta Receptor IC50)
Conditions: rat brain membranes; radioligand 3H-[D-Pen2,D-Pen5]-(enkephalin) 0.1 nM; read-out: Delta Receptor IC50
Procedure: The assay procedures used for such determinations of delta receptor activity are set out below. Inhibition of receptor binding: Rat (Sprague-Dawley) brain membranes were prepared and binding assays were performed at 24° C. for 90 minutes as described by Chang, et al. (J. Biol. Chem. 254, 2610 (1979) and Mol. Pharmacol. 16, 91 (1979)) with a filtration method (GF/C filter). […] Non-specific binding was determined in the presence of 1 mM of the unlabeled ligand. […]
Reported IC50 is given for each of the following molecules.
Please reply with the bare figure in nM and do not write the unit itself.

Request: IC50 of C=CCN1C[C@H](C)N([C@H](c2ccc(C(=O)N(C)CC)cc2)c2cccc(O)c2)C[C@@H]1C on delta opioid receptor (Rattus norvegicus, UniProt P33533)?
Result: 0.86

Request: IC50 of C=CCN1C[C@H](C)N([C@@H](c2cccc(O)c2)c2cccc(C(N)=O)c2)C[C@H]1C (relative stereo) on delta opioid receptor (Rattus norvegicus, UniProt P33533)?
Result: 4

Request: IC50 of C[C@H]1CN([C@H](c2ccc(C(=O)N3CCCCC3)cc2)c2cccc(O)c2)[C@@H](C)CN1C on delta opioid receptor (Rattus norvegicus, UniProt P33533)?
Result: 1.2
